target: AgSho1; assay: SPOT peptide array binding signal intensity (averaged, normalized) (arbitrary units (background-subtracted, floor 0; scale differs between SH3 domains)); higher = stronger binding of the SH3 domain to the peptide
// bucketize SPOT peptide array binding signal intensity: range 1: < 10; range 2: ≥ 10 and < 200; range 3: ≥ 200

| binder | classAssignment |
| --- | --- |
| QLLNPNRRAPRRPLS | range 1 |
| NQARKPFLLPATELS | range 1 |
| RLPAPPPPPRRGPAP | range 1 |
| KRRAPPPVPKKPSSR | range 3 |
| QFDLKMPSKPIHNLK | range 2 |

# bin lookup: classify "LPMNIQPDLPPRKIM" by its SPOT peptide array binding signal intensity range 3

# bin lookup: classify "ALFRLSFFFPLDPAY" by its SPOT peptide array binding signal intensity range 3

# bin lookup: classify "RPKRRAPPPVPKKPS" by its SPOT peptide array binding signal intensity range 3

# bin lookup: classify "IPSRPAPKPPSSASA" by its SPOT peptide array binding signal intensity range 1

# bin lookup: classify "MPAPPPPPPPPPGAF" by its SPOT peptide array binding signal intensity range 1

# bin lookup: classify "HPRFVSPRIPSRIVK" by its SPOT peptide array binding signal intensity range 2

# bin lookup: classify "RLSFFFPLDPAYIRN" by its SPOT peptide array binding signal intensity range 2

# bin lookup: classify "KKEKKPPKIPKKVYT" by its SPOT peptide array binding signal intensity range 1

# bin lookup: classify "NRPAIRIPSLKKPAL" by its SPOT peptide array binding signal intensity range 2

# bin lookup: classify "PALPSLPPPPLLNVD" by its SPOT peptide array binding signal intensity range 2
